# credit: PubChem BioAssay (NCI)

Test system: NCI-H460 lung
Assay name: NCI-60 one-dose screen, 48 h
Condition details: 10 µM unless noted
The panel holds about 83,000 compounds, 20% with a hit somewhere; the sample as a whole holds those more often. The source made the active and inactive calls. The calls were made as follows: active = growth percent below 10; inactive = the rest.
Give one outcome, nothing more. List: 1 (active), 0 (inactive)

• COc1ccc2c(CCCCC(c3ccccc3)c3ccccc3)c3[n+](cc2c1OC)CCc1cc2c(cc1-3)OCO2 = 1
• FC(F)(F)c1ccc(CNc2ccc(Cc3c[nH]c4ncc(Cl)cc34)cn2)cn1 = 0

Prompt line: Write down the call the test reported for this compound. Item: COC(=O)[C@H](Cc1ccc(O)cc1)NC(=O)[C@@H](OC)[C@@H]1Cc2cc3cc(OC4CC(OC5CC(O)C(O)C(C)O5)C(O)C(C)O4)c(C)c(O)c3c(O)c2C(=O)[C@H]1OC1CC(OC2CC(OC3CC(C)(O)C(O)C(C)O3)C(O)C(C)O2)C(O)C(C)O1 (stereo partly drawn)
Response line: 1

* * *

Test system: M14 melanoma
Assay name: NCI-60 one-dose screen, 48 h (100 = growth as untreated, 0 = no growth, -100 = all killed)
Condition details: 10 µM unless noted
Compounds without any hit were thinned out: in the full panel of roughly 83,000, 20% have a hit.
// reported growth for each item listed
Field: numeric (%). Do not append units.

Prompt line: What growth appears in the records for this molecule with M14 melanoma? Cc1cc(-c2cc(O)ccc2Cl)cc2nnc(Nc3ccc(OCCN4CCCC4)cc3)nc12
Response line: -51.8

Prompt line: What growth appears in the records for this molecule with M14 melanoma? CCNC(=O)C#Cc1ccc2c(C(=Nc3ccc(CN(C)C)cc3)c3ccccc3)c(O)[nH]c2c1
Response line: -33.7

Prompt line: What growth appears in the records for this molecule with M14 melanoma? C#Cc1cccc(Nc2ncnc3cc4c(cc23)OCCOCCOCCO4)c1
Response line: 49.2

* * *

System: SNB-75 CNS
Assay name: NCI-60 one-dose screen, 48 h
Condition details: 10 µM unless noted
Protocol: Growth inhibition of the SNB-75 human tumor cell line is measured as a screen for anti-cancer activity. Cells are grown in 96 well plates and exposed to the test compound for 48 hours. Compounds are tested at a single concentration, which is 10^-5 M for most compounds. The reported endpoint is percent growth (GI% or GIPRCNT), where numbers from 0 - 100% represent growth inhibition, and numbers from -100% - 0 represent cell death. For example, a value of 40 represents 60% growth inhibition. […]
About 83,000 compounds went through this panel and 20% of them were active in at least one assay; those are over-represented in the sample as a whole. The source made the active and inactive calls. The calls were made as follows: active = growth percent below 10; inactive = the rest.
Give one outcome, nothing more. List: active, inactive

- C=CCN1C(=O)c2cccc3c(-c4ccc5c(c4)ncn5C4CCCCC4)ccc(c23)C1=O: inactive
- COc1ccc(/C(C)=C(\c2ccc(Cl)cc2)c2ccc(OCCN3CCCCCC3)cc2)cc1: inactive
- N#Cc1c(-c2ccc(C(F)(F)F)cc2)c(F)c(NCCC2CCC(O)C2)n2c1nc1ccccc12 (centres undefined): inactive
- CNC(=O)c1nn(C)c2c1C(C)(C)Cc1cnc(Nc3ccc(N4CCN(C)CC4)cc3)nc1-2: active
- O=C(COc1cccc(/C=C2\Cc3ccc(Cl)cc3C2=O)c1)Nc1nccs1: inactive

Prompt line: Write down the call the test reported for this molecule. Item: CNC(=O)c1cc(Oc2cccc3nc(Nc4ccc(Oc5ccccc5)cc4)ccc23)ccn1
Response line: inactive

Prompt line: Write down the call the test reported for this molecule. Item: CC[C@@H]1C(=O)N(C)c2cnc(Nc3ccc(C(=O)NC4CCN(C)CC4)cc3OC)nc2N1C1CCCC1
Response line: active

Prompt line: Write down the call the test reported for this molecule. Item: COc1cnc2c(c1)C(=O)c1c-2n(CCCN2CCOCC2)c(=O)c2cc(Cl)ccc12
Response line: inactive

Prompt line: Write down the call the test reported for this molecule. Item: Cc1ccc(C(=O)Nc2ccc(CN3CCN(C)CC3)c(C(F)(F)F)c2)cc1C#Cc1cnc2cccnn12
Response line: active

Prompt line: Write down the call the test reported for this molecule. Item: Cc1cc(N2CCOCC2)nc(N(CCNc2ccnc3cc(Cl)ccc23)Cc2cccs2)n1
Response line: active

Prompt line: Write down the call the test reported for this molecule. Item: COc1cc(Nc2ncc(F)c(Nc3ccc4c(n3)N(COP(=O)(O)O)C(=O)C(C)(C)O4)n2)cc(OC)c1OC
Response line: active

Prompt line: Write down the call the test reported for this molecule. Item: COc1cc(CCc2cc(NC(=O)c3ccc(N4C[C@@H](C)N[C@@H](C)C4)cc3)n[nH]2)cc(OC)c1
Response line: active

Prompt line: Write down the call the test reported for this molecule. Item: CCOC(=O)C1=C(C)N=C2Sc3cccc(OC)c3N2[C@H]1c1ccccn1
Response line: inactive

Prompt line: Write down the call the test reported for this molecule. Item: O=C(CNc1nc2ccccc2s1)Nc1ccc(-c2nc3ccccc3s2)cc1
Response line: inactive

Prompt line: Write down the call the test reported for this molecule. Item: C1=C\COCc2cc(ccc2OCCN2CCCC2)Nc2nccc(n2)-c2cccc(c2)COC/1
Response line: active

Prompt line: Write down the call the test reported for this molecule. Item: C=CCCCOC1[C@H](OCc2ccccc2)C(OCc2ccccc2)C(OC)O[C@@H]1CNC(=O)c1cccc(I)c1 (some centres undefined)
Response line: inactive

Prompt line: Write down the call the test reported for this molecule. Item: CCOC(=O)C1=C(C)NC(=O)NC1c1cc(=O)oc2ccc(C)cc12 (centres undefined)
Response line: inactive

Prompt line: Write down the call the test reported for this molecule. Item: CC[C@H](CO)Nc1nc(NCc2ccccc2)c2ncn(C(C)C)c2n1
Response line: inactive

Prompt line: Write down the call the test reported for this molecule. Item: COc1ccc(CCCc2c3[n+](cc4c(OC)c(OC)ccc24)CCc2cc4c(cc2-3)OCO4)cc1
Response line: inactive
